System: P. berghei ookinete development
test_context: read-out: Pb Ookinete development assay IC50; dose response confirmation
pIC50: −log10 of the molar value.
Would you mind labelling by pIC50? At or over 6 is fulfilled, under is not fulfilled.

# compound, category_label
data = [
    ("CC(C)N1CCN(CCCCNc2c3ccccc3nc3ccccc23)CC1.Cl", "not fulfilled"),
    ("CC1CN(Cc2cccc(F)c2)CCN1c1ccc(NC(=O)c2cccs2)cc1.O=C(O)C(F)(F)F (centres unmarked)", "fulfilled"),
]

Kindly consider the entry below.
Reported pIC50 reaches at least 6 for `CC(=O)c1ccc(NC(=O)Nc2ccc(N(C)c3ccnc(Nc4cccc(CS(C)(=O)=O)c4)n3)cc2)cc1` ?
fulfilled
